- Test system: Staphylococcus epidermidis
- Assay Explanation: Antibacterial activity against erythromycin-resistant Staphylococcus epidermidis 19-5 assessed as inhibition of visible bacterial growth incubated for 18 hrs by broth microdilution method
- Format: functional
Assay Endpoint: MIC

Please review the following examples before continuing.
CCc1ccc(NC(=O)OCCCN2C(=O)O[C@]3(C)[C@@H](CC)OC(=O)[C@@](C)(F)C(=O)[C@H](C)[C@@H](O[C@@H]4O[C@H](C)C[C@H](N(C)C)[C@H]4O)[C@](C)(OC)C[C@@H](C)C(=O)[C@H](C)[C@@H]23)cc1    < 0.03 µg/mL
CC[C@H]1OC(=O)[C@@](C)(F)C(=O)[C@H](C)[C@@H](O[C@@H]2O[C@H](C)C[C@H](N(C)C)[C@H]2O)[C@](C)(OC)C[C@@H](C)C(=O)[C@H](C)[C@H]2N(CCCOC(=O)Nc3cccc(C)c3C)C(=O)O[C@]12C    < 0.03 µg/mL
CC[C@H]1OC(=O)[C@@](C)(F)C(=O)[C@H](C)[C@@H](O[C@@H]2O[C@H](C)C[C@H](N(C)C)[C@H]2O)[C@](C)(OC)C[C@@H](C)C(=O)[C@H](C)[C@H]2N(CCCOC(=O)Nc3ccc(F)cc3)C(=O)O[C@]12C    < 0.03 µg/mL
CC[C@H]1OC(=O)[C@@](C)(F)C(=O)[C@H](C)[C@@H](O[C@@H]2O[C@H](C)C[C@H](N(C)C)[C@H]2O)[C@](C)(OC)C[C@@H](C)C(=O)[C@H](C)[C@H]2N(CCCOC(=O)Nc3ccc(C(F)(F)F)cc3)C(=O)O[C@]12C    < 0.03 µg/mL
CC[C@H]1OC(=O)[C@@](C)(F)C(=O)[C@H](C)[C@@H](O[C@@H]2O[C@H](C)C[C@H](N(C)C)[C@H]2O)[C@](C)(OC)C[C@@H](C)C(=O)[C@H](C)[C@H]2N(CCCOC(=O)Nc3ccccc3OC)C(=O)O[C@]12C    0.06 µg/mL

What MIC value was documented for this compound, `CC[C@H]1OC(=O)[C@@](C)(F)C(=O)[C@H](C)[C@@H](O[C@@H]2O[C@H](C)C[C@H](N(C)C)[C@H]2O)[C@](C)(OC)C[C@@H](C)C(=O)[C@H](C)[C@H]2N(CCCOC(=O)Nc3c(C)noc3C)C(=O)O[C@]12C` ? 0.03 µg/mL

What MIC value was documented for this compound, `CC[C@H]1OC(=O)[C@H](C)C(=O)[C@H](C)[C@@H](O[C@@H]2O[C@H](C)C[C@H](N(C)C)[C@H]2O)[C@](C)(OC)C[C@@H](C)C(=O)[C@H](C)[C@H]2N(CCCOC(=O)Nc3ccc(C)cc3)C(=O)O[C@]12C` ? 0.125 µg/mL

What MIC value was documented for this compound, `CC[C@H]1OC(=O)[C@@](C)(F)C(=O)[C@H](C)[C@@H](O[C@@H]2O[C@H](C)C[C@H](N(C)C)[C@H]2O)[C@](C)(OC)C[C@@H](C)C(=O)[C@H](C)[C@H]2N(CCCOC(=O)Nc3cccc(Cl)c3)C(=O)O[C@]12C` ? < 0.03 µg/mL
